Source of measurements: patent US4981873A

Tested on: thrombocyte aggregation (U 46619-induced)
Test Protocol: TX antagonistic effect: inhibition of U 46619-induced thrombocyte aggregation in platelet-rich plasma (Born and Cross)
Type: cell-based
Measurement Setup: 5 min, human platelet-rich plasma, citrate, aggregation followed over 5 minutes, read-out: Thromboxane Aggregation IC50
pIC50: −log10 of the molar value.
Reported pIC50 values for a set of molecules

| Molecule | Experimental System | pIC50 |
| --- | --- | --- |
| CC(C)(CCSCCNS(=O)(=O)c1ccc(Cl)cc1)C(=O)O [Example 8] | thrombocyte aggregation (U 46619-induced) | 4.89 |
| O=C(O)CSCCC/C=C\CNS(=O)(=O)c1ccc(Cl)cc1 [Example 7] | thrombocyte aggregation (U 46619-induced) | 5.85 |
| O=C(O)C[S+]([O-])CCCCCCNS(=O)(=O)c1ccc(Cl)cc1 (stereo not drawn) [Example 5] | thrombocyte aggregation (U 46619-induced) | 5.68 |
| CC(C)(CCCSCCCNS(=O)(=O)c1ccc(Cl)cc1)C(=O)O [Example 11] | thrombocyte aggregation (U 46619-induced) | 4.22 |
| COc1ccc(S(=O)(=O)NCCCCCSC(C)(C)C(=O)O)cc1 [Example 9.2] | thrombocyte aggregation (U 46619-induced) | 4.00 |
| CC(C)(CCSCCNS(=O)(=O)c1ccc(Cl)cc1)CC(=O)O [Example 8.3] | thrombocyte aggregation (U 46619-induced) | 5.30 |
| CC(C)(CCSCCCNS(=O)(=O)c1ccc(Cl)cc1)CC(=O)O [Example 11.2] | thrombocyte aggregation (U 46619-induced) | 4.00 |
| CC(C)(SCCCCCNS(=O)(=O)c1ccc(Cl)cc1)C(=O)O [Example 9] | thrombocyte aggregation (U 46619-induced) | 5.28 |
| O=C(O)CSCCCCCCNS(=O)(=O)c1ccc(Cl)cc1 [Example 4] | thrombocyte aggregation (U 46619-induced) | 5.89 |
